- experiment_notes: Cytotoxicity against mouse RAW264.7 cells assessed as cell proliferation at 8 uM after 1 hr by MTT assay relative to control
- Type: cell-based
- condition: read-out: Activity
readout_name: viability at 1 h, 8 µM

Input: Recall and state the measured viability at 1 h, 8 µM for "CCCCCCCCCCCC(=O)NCC(=O)N[C@@H](CC(C)C)C(=O)N[C@@H](CC(C)C)C(=O)N[C@H](CCCCN)C(=O)N[C@@H](CCCNC(=N)N)C(=O)N[C@H](C(=O)N[C@H](CCCCN)C(=O)N[C@H](C(=O)N[C@@H](CC(C)C)C(=O)N[C@@H](CC(C)C)C(N)=O)[C@@H](C)O)[C@@H](C)CC" .
Output: < 80%
